Source: ChEMBL document CHEMBL3882390

Target: Sterol O-acyltransferase 2 (Homo sapiens)
Sequence (O75908 whole entry): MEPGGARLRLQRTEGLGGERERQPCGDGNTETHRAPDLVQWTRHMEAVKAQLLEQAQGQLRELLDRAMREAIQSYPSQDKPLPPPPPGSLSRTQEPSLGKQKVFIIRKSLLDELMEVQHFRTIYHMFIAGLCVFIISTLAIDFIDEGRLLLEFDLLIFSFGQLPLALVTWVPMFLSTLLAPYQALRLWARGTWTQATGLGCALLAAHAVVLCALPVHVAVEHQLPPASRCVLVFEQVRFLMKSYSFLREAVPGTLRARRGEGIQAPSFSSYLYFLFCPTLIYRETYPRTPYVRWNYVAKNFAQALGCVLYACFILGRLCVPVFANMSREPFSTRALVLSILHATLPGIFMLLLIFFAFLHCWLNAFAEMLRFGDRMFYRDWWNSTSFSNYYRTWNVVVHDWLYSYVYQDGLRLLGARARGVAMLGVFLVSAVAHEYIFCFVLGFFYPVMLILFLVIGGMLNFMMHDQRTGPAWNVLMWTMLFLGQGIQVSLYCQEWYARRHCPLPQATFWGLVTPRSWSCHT
Experiment: Inhibition of ACAT2 (unknown origin)
PROPERTY MEASURED: IC50 (nM)
Your answer is read as nM, so omit the unit and give the number.

Q: Entry CCCCCCCCCCCCS[C@H](C(=O)Nc1cc(C)c(O)c(C)c1C)c1ccccc1 [EFLUCIMIBE] : reported IC50 = ?
A: 110
